Method Notes: Selectivity index, ratio of CC50 for human HepG2 cells to EC50 for Trypanosoma brucei brucei trypomastigotes AnTat 1.9
Format: toxicity
Test Conditions: read-out: Ratio CC50/EC50

>  <Molecule>
O=c1[nH]c2c([N+](=O)[O-])cc(Cl)cc2cc1Cl

>  <Qualifier Sign>
=

>  <selectivity ratio>
243

$$$$
>  <Molecule>
O=c1[nH]c2c([N+](=O)[O-])cc(C#CCCCO)cc2cc1Cl

>  <Qualifier Sign>
=

>  <selectivity ratio>
38

$$$$
>  <Molecule>
O=c1[nH]c2c([N+](=O)[O-])cc(C#CCO)cc2cc1Cl

>  <Qualifier Sign>
=

>  <selectivity ratio>
31

$$$$
>  <Molecule>
O=c1ccc2cc(C(F)(F)F)cc([N+](=O)[O-])c2[nH]1

>  <Qualifier Sign>
=

>  <selectivity ratio>
24

$$$$
>  <Molecule>
O=c1[nH]c2c([N+](=O)[O-])cc(C(F)(F)F)cc2cc1Br

>  <Qualifier Sign>
=

>  <selectivity ratio>
206

$$$$
>  <Molecule>
Nc1cc(C(F)(F)F)cc2cc(Br)c(=O)[nH]c12

>  <Qualifier Sign>
>

>  <selectivity ratio>
11

$$$$
>  <Molecule>
O=c1ccc2cc(Br)cc([N+](=O)[O-])c2[nH]1

>  <Qualifier Sign>
=

>  <selectivity ratio>
399

$$$$
>  <Molecule>
COc1ccc2cc(C(F)(F)F)cc([N+](=O)[O-])c2n1

>  <Qualifier Sign>
>

>  <selectivity ratio>
5

$$$$
>  <Molecule>
O=c1[nH]c2c([N+](=O)[O-])cccc2cc1Cl

>  <Qualifier Sign>
=

>  <selectivity ratio>
71

$$$$
>  <Molecule>
O=c1[nH]c2c([N+](=O)[O-])cc(Br)cc2cc1Cl

>  <Qualifier Sign>
=

>  <selectivity ratio>
1510

$$$$
>  <Molecule>
CSc1ccc(OCc2ncc([N+](=O)[O-])n2C)cc1 [FEXINIDAZOLE]

>  <Qualifier Sign>
>

>  <selectivity ratio>
500

$$$$
>  <Molecule>
Cc1ccc(C(=O)Nc2ccc(S(=O)(=O)O)c3cc(S(=O)(=O)O)cc(S(=O)(=O)O)c23)cc1NC(=O)c1cccc(NC(=O)Nc2cccc(C(=O)Nc3cc(C(=O)Nc4ccc(S(=O)(=O)O)c5cc(S(=O)(=O)O)cc(S(=O)(=O)O)c45)ccc3C)c2)c1 [SURAMIN]

>  <Qualifier Sign>
>

>  <selectivity ratio>
3330

$$$$
>  <Molecule>
O=C(O)c1ccc(-c2cc3cccc([N+](=O)[O-])c3[nH]c2=O)cc1

>  <Qualifier Sign>
=

>  <selectivity ratio>
80

$$$$
>  <Molecule>
O=c1[nH]c2c([N+](=O)[O-])cc(Br)cc2cc1Br

>  <Qualifier Sign>
=

>  <selectivity ratio>
332

$$$$
>  <Molecule>
O=C(O)c1ccc(-c2cc3cc(Br)cc([N+](=O)[O-])c3[nH]c2=O)cc1

>  <Qualifier Sign>
=

>  <selectivity ratio>
302

$$$$
>  <Molecule>
O=c1[nH]c2c([N+](=O)[O-])cc(C(F)(F)F)cc2cc1Cl

>  <Qualifier Sign>
=

>  <selectivity ratio>
55

$$$$
>  <Molecule>
O=c1[nH]c2c([N+](=O)[O-])cccc2cc1Br

>  <Qualifier Sign>
=

>  <selectivity ratio>
48

$$$$

* * *

Method Notes: Cytotoxicity against human HepG2 cells assessed as reduction in cell viability incubated for 72 hrs by MTT assay
Type: cell-based
Test Conditions: HepG2 cells

>  <Query Smiles>
O=C(O)c1ccc(-c2cc3cccc([N+](=O)[O-])c3[nH]c2=O)cc1

>  <Measurement Unit>
µM

>  <CC50 at 72 h>
120

$$$$

* * *

System: HepG2
Method Notes: Cytotoxicity against human HepG2 cells assessed as reduction in cell viability incubated for 72 hrs by MTT assay
Assay type: cell-based
Test Conditions: hepg2, 72 h
TRUE if CC50 is below 30 µM. FALSE if not; exact matches included in FALSE.

>  <Molecule>
COc1ccc2cc(C(F)(F)F)cc([N+](=O)[O-])c2n1

>  <Discrete Label>
FALSE

$$$$
>  <Molecule>
O=c1ccc2cc(Br)cc([N+](=O)[O-])c2[nH]1

>  <Discrete Label>
TRUE

$$$$
>  <Molecule>
O=c1[nH]c2ccc(C(F)(F)F)cc2cc1Br

>  <Discrete Label>
FALSE

$$$$
>  <Molecule>
O=c1ccc2cc(C(F)(F)F)cc([N+](=O)[O-])c2[nH]1

>  <Discrete Label>
FALSE

$$$$
>  <Molecule>
Nc1cc(C(F)(F)F)cc2cc(Br)c(=O)[nH]c12

>  <Discrete Label>
FALSE

$$$$
>  <Molecule>
O=c1[nH]c2c([N+](=O)[O-])cc(Cl)cc2cc1Cl

>  <Discrete Label>
TRUE

$$$$
>  <Molecule>
O=c1[nH]c2c([N+](=O)[O-])cc(Br)cc2cc1Br

>  <Discrete Label>
TRUE

$$$$
>  <Molecule>
O=c1[nH]c2c([N+](=O)[O-])cc(C(F)(F)F)cc2cc1Br

>  <Discrete Label>
FALSE

$$$$
>  <Molecule>
O=c1[nH]c2c([N+](=O)[O-])cc(C(F)(F)F)cc2cc1Cl

>  <Discrete Label>
FALSE

$$$$
>  <Molecule>
O=c1ccc2cc(C(F)(F)F)ccc2[nH]1

>  <Discrete Label>
FALSE

$$$$
>  <Molecule>
O=c1[nH]c2c([N+](=O)[O-])cc(C#CCCCO)cc2cc1Cl

>  <Discrete Label>
FALSE

$$$$
>  <Molecule>
Cc1ccc(C(=O)Nc2ccc(S(=O)(=O)O)c3cc(S(=O)(=O)O)cc(S(=O)(=O)O)c23)cc1NC(=O)c1cccc(NC(=O)Nc2cccc(C(=O)Nc3cc(C(=O)Nc4ccc(S(=O)(=O)O)c5cc(S(=O)(=O)O)cc(S(=O)(=O)O)c45)ccc3C)c2)c1

>  <Discrete Label>
FALSE

$$$$
>  <Molecule>
NCCCC(N)(C(=O)O)C(F)F (stereo not drawn)

>  <Discrete Label>
FALSE

$$$$
>  <Molecule>
O=c1[nH]c2ccc(C(F)(F)F)cc2cc1Cl

>  <Discrete Label>
FALSE

$$$$
>  <Molecule>
CSc1ccc(OCc2ncc([N+](=O)[O-])n2C)cc1

>  <Discrete Label>
FALSE

$$$$
>  <Molecule>
O=c1[nH]c2c([N+](=O)[O-])cc(Br)cc2cc1Cl

>  <Discrete Label>
TRUE

$$$$
>  <Molecule>
O=C(O)c1ccc(-c2cc3cc(Br)cc([N+](=O)[O-])c3[nH]c2=O)cc1

>  <Discrete Label>
FALSE

$$$$

* * *

Test system: Leishmania donovani
Method Notes: Antileishmanial activity against Leishmania donovani BOB (MHOM/SD/62/1S-CL2D) promastigotes overexpressing NTR2 assessed as inhibition of parasite growth incubated for 72 hrs by resazurin dye based assay
Format: functional, organism-based
The reader will find reported EC50 values listed item by item below.

>  <Query Smiles>
O=c1[nH]c2c([N+](=O)[O-])cc(Br)cc2cc1Cl

>  <EC50 (µM)>
2.9

$$$$
>  <Query Smiles>
O=c1[nH]c2c([N+](=O)[O-])cc(C(F)(F)F)cc2cc1Br

>  <EC50 (µM)>
4.9

$$$$
>  <Query Smiles>
O=c1[nH]c2c([N+](=O)[O-])cccc2cc1Br

>  <EC50 (µM)>
4.6

$$$$
>  <Query Smiles>
O=C(O)c1ccc(-c2cc3cc(Br)cc([N+](=O)[O-])c3[nH]c2=O)cc1

>  <EC50 (µM)>
2.1

$$$$

* * *

The reader will find reported log10 EC50 values listed item by item below.
Tested on: Trypanosoma brucei brucei
Method Notes: Antitrypanosomal activity against bloodstream form of wild type Trypanosoma brucei brucei S427 trypomastigotes assessed as inhibition of parasite growth
Format: functional, organism-based
Measured Property: log10 EC50 (log10 of the value in µM)

>  <Compound>
O=c1[nH]c2c([N+](=O)[O-])cccc2cc1Br

>  <log10 EC50>
1.25

$$$$
>  <Compound>
O=c1[nH]c2c([N+](=O)[O-])cc(C(F)(F)F)cc2cc1Br

>  <log10 EC50>
0.83

$$$$
>  <Compound>
O=c1[nH]c2c([N+](=O)[O-])cc(Br)cc2cc1Cl

>  <log10 EC50>
-0.52

$$$$
>  <Compound>
O=C(O)c1ccc(-c2cc3cccc([N+](=O)[O-])c3[nH]c2=O)cc1

>  <log10 EC50>
0.73

$$$$
>  <Compound>
O=C(O)c1ccc(-c2cc3cc(Br)cc([N+](=O)[O-])c3[nH]c2=O)cc1

>  <log10 EC50>
0.60

$$$$
>  <Compound>
CC1CS(=O)(=O)CCN1/N=C/c1ccc([N+](=O)[O-])o1 (stereo unspecified) [NIFURTIMOX]

>  <log10 EC50>
0.28

$$$$
